# Test system: Staphylococcus aureus
# assay-text: Antibacterial activity against Staphylococcus aureus ATCC 25923 by microdilution method
# Format: functional
readout-label: MIC (µg/mL)
Express your answer in µg/mL, writing the number without its unit.

Example entries begin here.
O=c1cc(CCl)oc(CN2CCN(c3ccc(Cl)c(Cl)c3)CC2)c1O :: 8
C[C@H]1COc2c(N3CCN(C)CC3)c(F)cc3c(=O)c(C(=O)O)cn1c23.C[C@H]1COc2c(N3CCN(C)CC3)c(F)cc3c(=O)c(C(=O)O)cn1c23.O [LEVOFLOXACIN] :: 0.25
O=c1cc(CCl)oc(CN2CCN(c3cccc(Cl)c3)CC2)c1O :: 8

Query for Staphylococcus aureus: what MIC does the record show for O=c1cc(CCl)oc(CN2CCN(c3ccccc3Cl)CC2)c1O ?
8
